Metric: melting point

Consider the reported melting point for these compounds:
# Compound, melting point
rows = [
    ("Nn1c(Cc2cccs2)n[nH]c1=S", "154 to 157 °C"),
    ("S=c1[nH]nc2n1N=C(c1ccccc1)CC2", "253 °C (dec.)"),
    ("Nn1c(Cc2c[nH]c3ccccc23)n[nH]c1=S", "172 to 175 °C"),
    ("S=c1[nH]ncn1N=Cc1ccncc1", "255 to 256 °C"),
]

Asked: I have this compound here, `S=c1[nH]ncn1N=Cc1cccnc1` , and I need its recorded melting point.
Given back: 157 °C (dec.)

Asked: I have this compound here, `S=c1[nH]nc2n1N=C(c1ccc(Cl)cc1)CC2` , and I need its recorded melting point.
Given back: 256 °C (dec.)

Asked: I have this compound here, Nn1c(C(O)c2ccccc2)n[nH]c1=S (stereo not shown) , and I need its recorded melting point.
Given back: 167 to 170 °C
